measurement.target: HCV-NS5b (Hepatitis C virus genotype 1b, UniProt Q9WMX2)
Construct: (His)6 (C); made in house; host or cells: XL-1 cells (E. coli), IPTG-inducible plasmid, nickel-NTA purification
experiment.notes: HCV-NS5b enzyme assay (incorporation of radiolabeled UTP)
Format: biochemical
condition.set: read-out: % inh@100, enzyme inhibition at compound concentration of 100 uM
Would you kindly list inhibition at 100 µM for each of these molecules?
The response must be a number in % with no trailing unit.

# input So what does the record say about inhibition at 100 µM for NC(=O)CNC(=O)c1ccc(-c2ccc(Cl)cc2)c(-c2ccc3cc(-c4nc5cc(C(=O)O)ccc5n4C4CCCCC4)ccc3n2)c1 ?
# output 98.7

# input For the molecule O=C(O)CC[C@H](NC(=O)c1ccc2c(c1)nc(-c1ccc3nc(-c4ccccc4)ccc3c1)n2C1CCCCC1)C(=O)O , what inhibition at 100 µM is on record?
# output 95.6

# input What value of inhibition at 100 µM has been reported for the following molecule? O=C(O)c1ccc2c(c1)nc(-c1ccc3nc(-c4ccccc4)cc(NCCCCO)c3c1)n2C1CCCCC1
# output 92

# input Entry O=C(O)c1ccc2c(c1)nc(-c1ccc3nc(-c4cc(OCC(=O)N5CCCC5)ccc4-c4ccc(Cl)cc4)ccc3c1)n2C1CCCCC1 : reported inhibition at 100 µM = ?
# output 97.2

# input Can you look up the measured inhibition at 100 µM of O=C(N[C@@H](Cc1c[nH]c2ccc(O)cc12)C(=O)O)c1ccc2c(c1)nc(-c1ccc3nc(-c4ccccc4)cnc3c1)n2C1CCCCC1 for me?
# output 100

# input Can you share its inhibition at 100 µM? I mean this molecule: O=C(O)c1ccc2c(c1)nc(-c1ccc3nc(-c4cccc(Br)c4)ccc3c1)n2C1CCCCC1
# output 101

# input Any idea what its inhibition at 100 µM is? The molecule is COCCOc1ccc(-c2ccc(Cl)cc2)c(-c2ccc3cc(-c4nc5cc(C(=O)O)ccc5n4C4CCCCC4)ccc3n2)c1
# output 95.9

# input Endpoint output: inhibition at 100 µM of O=C(O)c1ccc2c(c1)nc(-c1ccc3nc(-c4ccccn4)ccc3c1)n2C1CCCCC1 . Value?
# output 98.4

# input Could you tell me which inhibition at 100 µM is on file for O=C(O)c1ccc2c(c1)nc(-c1ccc3nc(-c4cc5cccc(O)c5o4)ccc3c1)n2C1CCCCC1 ?
# output 91.5

# input What value of measured inhibition at 100 µM is listed for CCOC(=O)c1cnc2c(c1)nc(-c1ccc3nc(-c4cc(O)ccc4-c4ccc(Cl)cc4)ccc3c1)n2C1CCCCC1 ?
# output 72.8

# input Requested field: inhibition at 100 µM. Item: C[C@@H](O)[C@H](NC(=O)c1ccc2c(c1)nc(-c1ccc3nc(-c4ccccc4)cnc3c1)n2C1CCCCC1)C(=O)O
# output 97.9

# input Value lookup for inhibition at 100 µM; key = O=C(O)c1ccc2c(c1)nc(-c1ccc3nc(-c4cccnc4)ccc3c1)n2C1CCCCC1
# output 89.3

# input // returns reported inhibition at 100 µM for input O=C(O)c1ccc2c(c1)nc(-c1ccc3nc(-c4ccccc4)cc(Oc4ccc5ccc(O)cc5c4)c3c1)n2C1CCCCC1
# output 101

# input Please give the measured inhibition at 100 µM for this molecule: O=C(O)c1ccc2c(c1)nc(-c1ccc3nc(-c4cccc(C(=O)N5CCCC5)c4)ccc3c1)n2C1CCCCC1
# output 99.7

# input // lookup inhibition at 100 µM for CCCN(CCC)Cc1ccc2cc(-c3nc4cc(C(=O)O)ccc4n3C3CCCCC3)ccc2n1
# output 96

# input Quick one: inhibition at 100 µM for O=C(O)c1ccc2c(c1)nc(-c1ccc3nc(-c4cccc(OCCCN5CCCC5)c4)ccc3c1)n2C1CCCCC1 ?
# output 96.8

# input Look at this molecule and give its reported inhibition at 100 µM. O=C(O)c1ccc2c(c1)nc(-c1ccc3nc(-c4cn(-c5cccnc5Cl)c(=O)[nH]c4=O)ccc3c1)n2C1CCCCC1
# output 96.4

# input Data request, read-out inhibition at 100 µM, for O=C(O)COc1cccc(-c2ccc3cc(-c4nc5cc(C(=O)O)ccc5n4C4CCCCC4)ccc3n2)c1
# output 99.6

# input State the recorded inhibition at 100 µM for this entry: O=C(O)CNC(=O)c1ccc2c(c1)nc(-c1ccc3nc(-c4ccccc4)cnc3c1)n2C1CCCCC1
# output 93.3

# input Field request: inhibition at 100 µM | item: NC(=O)CNC(=O)c1ccc(-c2ccccc2)c(-c2ccc3cc(-c4nc5cc(C(=O)O)ccc5n4C4CCCCC4)ccc3n2)c1
# output 99.4

# input Given the entry O=C(O)c1ccc2c(c1)nc(-c1ccc3nc(-c4cc(OCCCN5CCCC5)ccc4-c4ccc(Cl)cc4)ccc3c1)n2C1CCCCC1 , report its measured inhibition at 100 µM.
# output 94.9

# input # inhibition at 100 µM lookup, item Nc1c(Cl)cc(-c2ccc3cc(-c4nc5cc(C(=O)O)ccc5n4C4CCCCC4)ccc3n2)cc1Cl
# output 101

# input Can you look up the measured inhibition at 100 µM of O=C(O)c1ccc2c(c1)nc(-c1ccc3nc(-c4ccccc4)cc(Sc4ccccc4)c3c1)n2C1CCCCC1 for me?
# output 100

# input inhibition at 100 µM for NC(=O)[C@H](CO)NC(=O)c1ccc2cc(-c3nc4cc(C(=O)O)ccc4n3C3CCCCC3)ccc2n1 ?
# output 76.2

# input Field request: inhibition at 100 µM | item: O=C(O)c1ccc2c(c1)nc(-c1ccc3nc(-c4cc(F)ccc4-c4ccc(Cl)cc4)ccc3c1)n2C1CCCCC1
# output 101

# input May I ask what inhibition at 100 µM has been recorded for Nc1ccc(-c2ccc(Cl)cc2)c(-c2ccc3cc(-c4nc5cc(C(=O)O)ccc5n4C4CCCCC4)ccc3n2)c1 ?
# output 101

# input What inhibition at 100 µM value was documented for this molecule, O=C(O)c1ccc2c(c1)nc(-c1ccc3nc(-c4cc(C(=O)N5CCCC5)ccc4-c4ccc(F)cc4)ccc3c1)n2C1CCCCC1 ?
# output 102
